B1: tRNA (parent)
chain: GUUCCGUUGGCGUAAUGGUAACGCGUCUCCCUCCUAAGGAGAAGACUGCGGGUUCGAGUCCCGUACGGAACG

Variants of: B1
ASSAY NAME: yeast fitness relative to wild type (ratio to wild type); higher = fitter; tRNA-Arg(CCU), competitive growth, 37 C, YPD
Variants at the floor of the assay were thinned out.
PARAMETER MEASURED: yeast fitness
// return just the number, without any unit appended

Recorded yeast fitness (variant `GUUCCGAUGGCGUAAUGGUAACGGGUCUGUCUCCUAAGGCGAAGACUGCGGGUUCGAGUCCCGUUCGGAACG` ): 0.59

Recorded yeast fitness (variant `GUUCUGCUGGCGUAAUGGUAACGCGUCUCACUCCUAAGGAGCAGACUGCGGGUUCGAGUCCCGUACGGAACG` ): 0.583

Recorded yeast fitness (variant `GUUCCGUUGGAGUAAUGGUAACGCGUCUCCCUCCUAAGGAGAAGACUGCAGGUUCGAGUCCCGUACGGAACG` ): 0.651

Recorded yeast fitness (variant `GUUCCGUUGCCGUAAUGGUAACGCGUCUCCCUCCUAAGGAGAAGACUGCGGGUUCGAGUCCUGUACGGAACG` ): 0.646

Recorded yeast fitness (variant `GUUCCGUUGGCGUAAUGGUAACGUGUCUCCCUCCUAAGGAGUAGACUGCGGCUUCGAGUCCCGUACGGAACG` ): 0.578

Recorded yeast fitness (variant `GUUCCGUUAGCGUUAUGGUACCGCGUCUCCCUCCUAAGGAGAAGACUGCGGGUUCGAGUCCCGUACGGAACG` ): 0.577

Recorded yeast fitness (variant `GUCCCGUUGGCGUAAUGGUAACGCGUCUCCCUCCUAAGGAGAAGACUGCGGGUUCGCGUCCCGUACGGAACG` ): 0.504

Recorded yeast fitness (variant `GUUCCGUUGGCGUAAUGGUAACGCGUCUCCCUCCUAACGAGAAGACUGCGGGUUCGAGUCCCGUACGGAACG` ): 0.806
